// provenance: ChEMBL document CHEMBL3832081

Test: Evaluation of pharmacokinetic parameters for metronidazole following topical administration of metronidazole gel USP, 1% to the face of 13 patients with moderate to severe rosacea.
Type: ADME, organism-based
Design: dose 1 g, route topical
Details: human, in vivo, topical or ocular, 1 g; dosed compound id 31, dosed compound name METRONIDAZOLE, gender male and female, regimen Once daily, study dosing duration 7 days, tissue Plasma; read-out: AUC(0-24)
assay metric: AUC
# do not omit the unit; it follows the number

Record request: AUC value, item Cc1ncc([N+](=O)[O-])n1CCO
595 ng·h/mL

* * *

Experiment: Evaluation of pharmacokinetic parameters for metronidazole following topical administration of metronidazole gel USP, 1% to the face of 13 patients with moderate to severe rosacea.
Type: ADME, organism-based
Design: dose 1 g, route topical
Details: human, in vivo, topical or ocular, 1 g; dosed compound id 31, dosed compound name METRONIDAZOLE, gender male and female, regimen Once daily, study dosing duration 7 days, tissue Plasma
assay metric: Cmax

Record request: Cmax value, item Cc1ncc([N+](=O)[O-])n1CCO
32 ng/mL
